Each entry below carries its reported T/C.
# Tested on: L1210 leukemia ip in BDF1 mice, survival T/C
# ASSAY_OVERVIEW: NCI In Vivo Anticancer Drug Screen. Data for tumor model L1210 Leukemia (intraperitoneal) in B6D2F1 (BDF1) mice
# TEST_CONTEXT: endpoint: mean survival time; dose: 200.0 mg/kg/injection; schedule: Q04DX003 (ip); vehicle: Klucel (hydroxypropylcellulose) (HPC); higher = longer survival
Toxic doses and inconclusive results are not listed.

Reference set (2 entries):
- Cc1ccc(S(=O)(=O)N/N=C/c2ccc([N+](=O)[O-])s2)cc1: 94 % of control
- Cc1cccc(NC(=O)NCCCl)c1Cl: 94 % of control

// moving on: another record for T/C
Ask: Can you look up the measured T/C of O=c1[nH]nc(-c2ccc(Cl)cc2Cl)s1 for me?
Result: 101 % of control

Values from PubChem BioAssay AID248
